B1: Caulobacter ParB omega fusion; a variant is named by its letters at X, in order, B8GW30 (parent)
chain: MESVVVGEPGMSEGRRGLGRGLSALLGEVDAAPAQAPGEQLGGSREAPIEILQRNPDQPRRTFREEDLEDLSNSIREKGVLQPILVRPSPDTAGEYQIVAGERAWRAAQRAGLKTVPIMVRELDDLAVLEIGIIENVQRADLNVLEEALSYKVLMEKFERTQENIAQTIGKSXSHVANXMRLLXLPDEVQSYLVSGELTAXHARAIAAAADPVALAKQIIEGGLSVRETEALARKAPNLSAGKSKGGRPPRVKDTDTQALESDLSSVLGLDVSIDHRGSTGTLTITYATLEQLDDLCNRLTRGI

Variants of: B1
Test: one-hybrid fitness for binding parS DNA (scaled: cognate 1, non-cognate 0); higher = stronger binding
Details: with parS DNA site
Over roughly 81,000 sequences, “one-hybrid fitness for binding parS DNA” has its median near -0.17; the highest 2% begin near 0.51. Shown is part of a subset that was picked to be rich in the highest values.
Entries annotated with measured one-hybrid fitness for binding parS DNA
Observation type: one-hybrid fitness for binding parS DNA

1) RWMM :: ≤ 0.2
2) RMNT :: 0.904
3) RCTR :: ≤ 0.2
4) ITRV :: ≤ 0.2
5) RWMK :: ≤ 0.2
6) RMRQ :: ≤ 0.2
7) RWMC :: 0.628
8) VCLS :: ≤ 0.2
9) RMND :: ≤ 0.2
10) HTGH :: ≤ 0.2
11) RWMP :: ≤ 0.2
